# target.entity: Wee1A kinase (CDK1 Tyr15 phosphorylation in ACHN renal cell carcinoma cells) (Homo sapiens, UniProt P30291)
# Construct: pCDK1 Tyr15 immunofluorescence read-out
# Sequence (P30291 whole entry): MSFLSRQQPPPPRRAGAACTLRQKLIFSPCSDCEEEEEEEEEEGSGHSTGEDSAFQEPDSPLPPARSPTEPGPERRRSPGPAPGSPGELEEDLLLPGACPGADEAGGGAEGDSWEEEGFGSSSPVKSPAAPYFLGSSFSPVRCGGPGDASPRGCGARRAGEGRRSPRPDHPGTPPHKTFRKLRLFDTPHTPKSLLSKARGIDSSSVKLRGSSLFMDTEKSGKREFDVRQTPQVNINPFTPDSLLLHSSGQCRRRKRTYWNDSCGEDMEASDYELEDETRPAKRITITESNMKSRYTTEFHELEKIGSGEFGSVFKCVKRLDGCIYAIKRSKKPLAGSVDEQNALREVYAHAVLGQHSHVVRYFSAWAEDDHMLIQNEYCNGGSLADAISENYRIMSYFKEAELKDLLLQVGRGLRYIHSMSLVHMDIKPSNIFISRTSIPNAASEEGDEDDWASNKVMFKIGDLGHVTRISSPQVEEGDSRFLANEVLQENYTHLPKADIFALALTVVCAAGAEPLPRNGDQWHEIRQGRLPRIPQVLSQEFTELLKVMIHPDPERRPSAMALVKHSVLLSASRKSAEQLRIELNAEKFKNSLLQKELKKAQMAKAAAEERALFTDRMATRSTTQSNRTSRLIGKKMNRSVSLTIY
# assay.method.text: High-content imaging of pCdk1 Y15, Wee1A kinase target engagement in ACHN cells
# Format: cell-based
# condition.notes: 4 h treatment, nuclear positivity for pCdk1 Y15 vs DMSO control, read-out: CDK1 Tyr15 Phosphorylation EC50
pEC50: −log10 of the molar value.
quantity.name: pEC50

Guide cases for pEC50, answers given:
get_value(item= C=CCn1c(=O)c2cnc(Nc3ccc4c(ccn4C(C)=O)c3)nc2n1-c1cccc(OC2CCNCC2)n1 , readout=pEC50) returns > 7.00

Sure, the documented pEC50 for C=CCn1c(=O)c2cnc(Nc3cc(-c4ccccc4)ns3)nc2n1-c1cccc(NC2CCN(C)CC2)n1 is 6.30 to 7.00

According to the records, this molecule C=CCn1c(=O)c2cnc(Nc3ccc(C(F)(F)F)cc3)nc2n1-c1cccc(NC2CCNCC2)n1 displays pEC50 of 6.00 to 6.30

Notebook: C=CCn1c(=O)c2cnc(Nc3ccc4c(cnn4C)c3)nc2n1-c1cccc(OC2CCNCC2)c1 , pEC50 read as 6.30 to 7.00

New cases:
Looking up C=CCn1c(=O)c2cnc(Nc3ccc4c(cnn4C)c3)nc2n1-c1cccc(O[C@H]2CCN[C@H](C)C2)n1 (stereo in doubt) , I see its pEC50 listed as 6.30 to 7.00

For this molecule ( C=CCn1c(=O)c2cnc(Nc3ccc4c(cnn4C)c3)nc2n1-c1cccc(O[C@@H]2CCN[C@@H](C)C2)n1 (relative stereo) ), measured pEC50 is > 7.00

Note to self: pEC50 recorded for C=CCn1c(=O)c2cnc(Nc3cccc(C)c3)nc2n1-c1cccc(OC2CCNCC2)n1 was > 7.00

Given item C=CCn1c(=O)c2cnc(Nc3ccc4nn(C(C)(C)C)cc4c3)nc2n1-c1cccc(OC2CCN(C)CC2)n1 , the value recorded as its pEC50 is > 7.00

pEC50 reported for this molecule C=CCn1c(=O)c2cnc(Nc3ccc4c(cnn4C(C)C)c3)nc2n1-c1cccc(OC2CCN(C)CC2)n1 : > 7.00

Data point: C=CCn1c(=O)c2cnc(Nc3ccc4c(cnn4C)c3)nc2n1-c1cccc(NC2CCN(C)CC2)c1 ; pEC50 = > 7.00

Data point: CCn1c(=S)c2cnc(Nc3ccc4c(cnn4C)c3)nc2n1-c1cccc(OC2CCN(C)CC2)n1 ; pEC50 = 6.30 to 7.00

Value of measured pEC50 for the entry CN1CCC(Oc2cccc(-n3c4nc(Nc5ccc6c(ccn6C)c5)ncc4c(=O)n3C)n2)CC1 : > 7.00

Lookup result for C=CCn1c(=O)c2cnc(Nc3cnn(C)c3)nc2n1-c1cccc(OC2CCNCC2)c1 ; measured pEC50: < 6.00

In plain terms, C=CCn1c(=O)c2cnc(Nc3ccc4c(cnn4C)c3)nc2n1-c1cccc(OC2CCCN(C)CC2)n1 (single isomer, unassigned) [Compound 373] has a documented pEC50 of > 7.00

For C=CCn1c(=O)c2cnc(Nc3ccc(Cl)cc3)nc2n1-c1cccc(O[C@@H]2CCCN(C)C2)n1 the molecule record lists pEC50 as 6.00 to 6.30

The reported value for C=CCn1c(=O)c2cnc(Nc3ccccc3)nc2n1-c1cccc(NC2CCNCC2)n1 in terms of pEC50 is 6.00 to 6.30

Form field pEC50, entry C=CCn1c(=O)c2cnc(Nc3cc(C)nc(C)c3)nc2n1-c1cccc(OC2CCN(C)CC2)n1 : > 7.00

// pEC50 lookup, molecule = CCn1c(=O)c2cnc(Nc3ccc(F)cc3)nc2n1-c1cccc(OC2CCNCC2)n1 , result: 6.30 to 7.00
